# experimental_system: Dual specificity calcium/calmodulin-dependent 3',5'-cyclic nucleotide phosphodiesterase 1A (Bos taurus, UniProt P14100)
# Sequence (P14100 whole entry): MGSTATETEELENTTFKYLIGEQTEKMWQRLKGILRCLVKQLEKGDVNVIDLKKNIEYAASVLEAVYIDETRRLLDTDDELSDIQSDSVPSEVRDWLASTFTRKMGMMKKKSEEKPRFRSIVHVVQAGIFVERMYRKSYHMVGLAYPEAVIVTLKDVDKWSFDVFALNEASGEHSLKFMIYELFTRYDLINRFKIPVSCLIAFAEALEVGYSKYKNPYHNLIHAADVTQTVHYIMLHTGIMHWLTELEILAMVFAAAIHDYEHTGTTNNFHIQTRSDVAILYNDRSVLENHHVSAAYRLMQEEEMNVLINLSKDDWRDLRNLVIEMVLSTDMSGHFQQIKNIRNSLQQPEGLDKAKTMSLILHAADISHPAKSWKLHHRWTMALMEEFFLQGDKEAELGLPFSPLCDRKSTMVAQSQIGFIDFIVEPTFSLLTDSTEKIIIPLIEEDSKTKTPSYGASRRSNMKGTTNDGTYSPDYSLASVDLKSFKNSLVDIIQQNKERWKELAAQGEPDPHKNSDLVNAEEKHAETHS
# method_notes: Inhibition of bovine heart Phosphodiesterase 1A
Listing of entries alongside the reported pIC50.
By convention, pIC50 is the negative base-10 log of a molar concentration.

Recorded results for 2 compounds are shown here.
INSERT INTO measurements (compound, metric, result) VALUES
  ('CCCc1c(OCC(O)COc2ccc3c(=O)cc(C(=O)O)oc3c2CCC)ccc(C(C)=O)c1O (centres undefined)', 'pIC50', 4.40),
  ('Cn1c(=O)c2[nH]cnc2n(C)c1=O', 'pIC50', 3.30);

[in] Which value of pIC50 has been reported for CC(C)C(C)c1nc2c(=O)[nH]c(=O)[nH]c2[nH]1 (centres undefined) in the records?
[out] 4.00

[in] // lookup pIC50 for CCCc1c(OCCCCCOc2cc3c(cc2C(C)=O)CCC(C(=O)O)O3)ccc(C(C)=O)c1O (centres undefined)
[out] 4.44

====

# experimental_system: UniProt Q2NNR5
# method_notes: In vitro activity to inhibit binding of [3H]- leukotriene D4 to receptor sites in guinea pig lung membrane
# Type: cell membranes
metric: IC50 (µM)
All answers are understood in µM, so give the number only.

[in] Tell me the measured IC50 of CCCc1c(OCCCCCOc2cc3c(cc2C(C)=O)CC[C@@H](C(=O)O)O3)ccc(C(C)=O)c1O , please.
[out] 5

====

Entries and their IC50
# experimental_system: Cysteinyl leukotriene receptor 1 (Cavia porcellus, UniProt Q2NNR5)
# Sequence (Q2NNR5 whole entry): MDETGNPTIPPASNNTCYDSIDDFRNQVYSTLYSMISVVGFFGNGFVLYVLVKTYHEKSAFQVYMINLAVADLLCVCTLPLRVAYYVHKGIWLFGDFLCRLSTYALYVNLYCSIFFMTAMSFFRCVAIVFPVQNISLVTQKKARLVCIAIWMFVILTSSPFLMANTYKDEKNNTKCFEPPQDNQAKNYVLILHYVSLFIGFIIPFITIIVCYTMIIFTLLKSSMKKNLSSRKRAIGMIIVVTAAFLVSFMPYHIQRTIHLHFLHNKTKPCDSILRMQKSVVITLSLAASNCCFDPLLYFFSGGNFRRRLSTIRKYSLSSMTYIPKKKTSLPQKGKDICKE
# method_notes: Inhibitory activity of compound to block binding of [3H]leukotriene D4 to Cysteinyl leukotriene D4 receptor sites in homogenized guinea pig lung
Please state the figure in µM; there is no need to write the unit.

As a guide, the following entries are already answered.
INSERT INTO measurements (molecule, experimental_system, result) VALUES
  ('CCCc1c(OCCCCCOc2cc3c(cc2C(C)=O)CCC(CCC)(C(=O)O)O3)ccc(C(C)=O)c1O (stereo unspecified)', 'Cysteinyl leukotriene receptor 1 (Cavia porcellus, UniProt Q2NNR5)', 2),
  ('CCCc1c(OCc2cccc(COc3cc4c(cc3C(C)=O)CCC(C(=O)O)O4)c2)ccc(C(C)=O)c1O (stereo unspecified)', 'Cysteinyl leukotriene receptor 1 (Cavia porcellus, UniProt Q2NNR5)', 7),
  ('CCCc1c(OCCCCCOc2cc3c(cc2C(C)=O)CCC(C(=O)O)C3)ccc(C(C)=O)c1O (stereo unspecified)', 'Cysteinyl leukotriene receptor 1 (Cavia porcellus, UniProt Q2NNR5)', 7),
  ('CCCc1c(OCCCCCCOc2cc3c(cc2C(C)=O)CCC(C(=O)O)O3)ccc(C(C)=O)c1O (stereo unspecified)', 'Cysteinyl leukotriene receptor 1 (Cavia porcellus, UniProt Q2NNR5)', 5),
  ('CCCc1c(OCCCOc2cc3c(cc2C(C)=O)CCC(C(=O)O)O3)ccc(C(C)=O)c1O (stereo unspecified)', 'Cysteinyl leukotriene receptor 1 (Cavia porcellus, UniProt Q2NNR5)', 6);

[in] Form field: reported IC50 of CCCc1c(OCCCCCOc2cc3c(cc2C(C)=O)CCC(C(=O)O)O3)ccc(C(C)=O)c1O (stereo unspecified)
[out] 4

====

# Test system: Cavia porcellus
# method_notes: Inhibition of leukotriene D4 induced bronchoconstriction in anesthetized guinea pigs after intravenous administration at a dose of 10 mg/kg
# Format: functional
# key: entry, value: inhibition in vivo at 10 mg/kg
# output: bare number, implied unit %

Sample answers from the record:
INSERT INTO results (molecule, experimental_system, metric, result) VALUES
  ('CCCc1c(OCCC(C)(C)CCOc2cc3c(cc2C(C)=O)CCC(C(=O)O)O3)ccc(C(C)=O)c1O (centres undefined)', 'Cavia porcellus', 'inhibition in vivo at 10 mg/kg', 15),
  ('CCCc1c(OCCCCOc2cc3c(cc2C(C)=O)CCC(C(=O)O)O3)ccc(C(C)=O)c1O (centres undefined)', 'Cavia porcellus', 'inhibition in vivo at 10 mg/kg', 36),
  ('CCCc1c(OCCCCCOc2cc3c(cc2C(C)=O)CCC(CCC(=O)O)O3)ccc(C(C)=O)c1O (centres undefined)', 'Cavia porcellus', 'inhibition in vivo at 10 mg/kg', 86),
  ('CCCc1c(OCCCCCOc2ccc3c(c2)OC(C(=O)O)CC3)ccc(C(C)=O)c1O (centres undefined)', 'Cavia porcellus', 'inhibition in vivo at 10 mg/kg', 0),
  ('CCCc1c(OCCCCc2nnn[nH]2)ccc(C(C)=O)c1O [TOMELUKAST]', 'Cavia porcellus', 'inhibition in vivo at 10 mg/kg', 77);

[in] Item under review: CCCc1c(OCCCCCOc2cc3c(cc2C(C)=O)CCC(C)(C(=O)O)O3)ccc(C(C)=O)c1O (centres undefined) . Reported inhibition in vivo at 10 mg/kg?
[out] 50

====

# method_notes: Inhibitory activity to inhibit Inophore-induced arachidonic acid metabolism (inhibition of PGE-2 formation) in rat
# Type: functional
Documented IC50 across a set of compounds
Give just the number in µM; leave the unit off.

Some compounds with recorded IC50:
INSERT INTO measurements (compound, result) VALUES
  ('O=C(O)c1ccc(OCCn2ccnc2)cc1 [DAZOXIBEN]', 10),
  ('COc1ccc2c(c1)c(CC(=O)O)c(C)n2C(=O)c1ccc(Cl)cc1 [INDOMETHACIN]', 0.1),
  ('CCCc1c(OCCCCCOc2cc3c(cc2C(C)=O)CCC(C(=O)O)O3)ccc(C(C)=O)c1O (centres undefined) [ABLUKAST]', 7);

[in] Which IC50 value is on record for CC(C)c1ccc2c(c1)c(SC(C)(C)C)c(CC(C)(C)C(=O)O)n2Cc1ccc(Cl)cc1 ?
[out] 5

====

# Tested on: Cavia porcellus
# method_notes: Inhibition of leukotriene D4 induced bronchoconstriction in anesthetized guinea pigs after intravenous administration
# Format: functional
# reported_conditions: read-out: ID50 (the source's name)
Criterion: ED50 strictly less than 5 mg/kg. Met: 1. Not met: 0.

Answered examples (3):
INSERT INTO measurements (compound, class) VALUES
  ('CCCc1c(OCC(O)COc2ccc3c(=O)cc(C(=O)O)oc3c2CCC)ccc(C(C)=O)c1O (stereo not drawn) [FPL-55712]', 1),
  ('CCCc1c(OCCOCCOc2cc3c(cc2C(C)=O)CCC(C(=O)O)O3)ccc(C(C)=O)c1O (stereo not drawn)', 0),
  ('CCCc1c(OCCCSc2ccc([C@@H](O)[C@H](C)CC(=O)O)cc2)ccc(C(C)=O)c1O [L-649923]', 0);

[in] ED50 under 5 mg/kg? Item: O=S(=O)(Nc1cccc(OCc2ccc3ccccc3n2)c1)C(F)(F)F [RITOLUKAST]
[out] 1

[in] Strictly below 5 mg/kg in ED50? CCCc1c(OCCCCCOc2cc3c(cc2C(C)=O)CCC(CCC)(C(=O)O)O3)ccc(C(C)=O)c1O (stereo not drawn)
[out] 0

====

# Tested on: Cavia porcellus
# method_notes: Inhibition of leukotriene D4 induced bronchoconstriction in anesthetized guinea pigs after aerosol administration as 1% solution
# Assay type: functional
Listing: Inhibition of selected molecules

Recorded results for 5 molecules are shown here.
INSERT INTO measurements (molecule, experimental_system, result) VALUES
  ('CCCc1c(OCCCCCOc2cc3c(cc2[N+](=O)[O-])CCC(C(=O)O)O3)ccc(C(C)=O)c1O (stereo unspecified)', 'Cavia porcellus', '0%'),
  ('O=C(O)CCSC(SCCC(=O)O)c1ccccc1CCCCCCCCc1ccccc1', 'Cavia porcellus', '58%'),
  ('CCCc1c(OCC(O)COc2ccc3c(=O)cc(C(=O)O)oc3c2CCC)ccc(C(C)=O)c1O (stereo unspecified)', 'Cavia porcellus', '64%'),
  ('CCCc1c(OCCCCCOc2cc(OCC(=O)O)ccc2C(C)=O)ccc(C(C)=O)c1O', 'Cavia porcellus', '46%'),
  ('CCCc1c(OCCCCCOc2cc3c(cc2C(C)=O)CCC2(CCC(C(=O)O)CC2)O3)ccc(C(C)=O)c1O (stereo unspecified)', 'Cavia porcellus', '83%');

[in] Recall the recorded Inhibition for CCCc1c(OCCCCCOc2cc3c(cc2C(C)=O)CC(C(=O)O)O3)ccc(C(C)=O)c1O (stereo unspecified) with Cavia porcellus and state it.
[out] 88%

[in] Report Inhibition for CCCc1c(OCCCCOc2cc3c(cc2C(C)=O)CCC(C(=O)O)O3)ccc(C(C)=O)c1O (stereo unspecified) tested on Cavia porcellus.
[out] 37%

[in] Requested read-out Inhibition, target or system Cavia porcellus, entry CCCc1c(OCCCCCCc2cc3c(cc2C(C)=O)CCC(C(=O)O)O3)ccc(C(C)=O)c1O (stereo unspecified)
[out] 65%

[in] Give recorded Inhibition with Cavia porcellus for the following molecule: CCCc1c(OCCCCCOc2cc3c(cc2C(C)=O)CCC(C(=O)O)C3)ccc(C(C)=O)c1O (stereo unspecified)
[out] 23%

[in] Fill in the recorded Inhibition for this molecule, with Cavia porcellus as test system: COc1cc(C(=O)NS(=O)(=O)c2ccccc2)ccc1Cn1ncc2ccc(NC(=O)OC3CCCC3)cc21
[out] 99%

[in] Find Inhibition (Cavia porcellus) for the entry CCCc1c(OCCCCCCOc2cc3c(cc2C(C)=O)CCC(C(=O)O)O3)ccc(C(C)=O)c1O (stereo unspecified)
[out] 36%

[in] Write down the reported Inhibition of CCCc1c(OCCCCCOc2ccc3c(c2C(C)=O)OC(C(=O)O)CC3)ccc(C(C)=O)c1O (stereo unspecified) , test system: Cavia porcellus.
[out] 1%

[in] Entry CCCc1c(OCCCCCOc2cc3c(cc2C(C)=O)CCC(C)(C(=O)O)O3)ccc(C(C)=O)c1O (stereo unspecified) , system Cavia porcellus: what Inhibition was measured?
[out] 85%
